# IC50 annotations
- Target of assay: Endothelin receptor type B (Rattus norvegicus)
- Sequence (P21451 whole entry): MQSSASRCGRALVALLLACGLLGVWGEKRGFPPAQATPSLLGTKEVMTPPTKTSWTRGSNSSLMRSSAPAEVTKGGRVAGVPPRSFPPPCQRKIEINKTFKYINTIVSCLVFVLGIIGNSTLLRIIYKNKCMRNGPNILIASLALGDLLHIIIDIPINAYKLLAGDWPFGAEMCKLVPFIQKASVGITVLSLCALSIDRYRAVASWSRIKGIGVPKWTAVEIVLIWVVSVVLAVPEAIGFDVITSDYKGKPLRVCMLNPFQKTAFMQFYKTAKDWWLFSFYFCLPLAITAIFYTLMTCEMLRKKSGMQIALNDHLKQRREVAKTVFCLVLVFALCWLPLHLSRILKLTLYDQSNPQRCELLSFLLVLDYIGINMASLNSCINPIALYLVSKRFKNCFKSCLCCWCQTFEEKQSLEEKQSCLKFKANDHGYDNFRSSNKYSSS
- Experiment description: In vitro inhibition of [125-I] labelled ET-1 endothelin binding to Endothelin B receptor in rat cerebellum
- Format: tissue-based

{"Smiles str": "COc1cccc(Cn2[nH]c(C(F)(F)F)c(Cc3ccc4c(c3)OCO4)c2=O)c1", "IC50, µM": 11}
{"Smiles str": "COc1cccc(Cn2nc(-c3ccccc3)c(Cc3ccc4c(c3)OCO4)c2C(=O)O)c1", "IC50, µM": 0.04}
{"Smiles str": "COc1cccc(Cn2[nH]c(C(F)(F)F)c(Cc3ccc(Cl)cc3)c2=O)c1", "IC50, µM": 22}
{"Smiles str": "COc1cccc(Cn2[nH]c(C(F)(F)F)c(Cc3cc(Cl)c4c(c3)OCO4)c2=O)c1", "IC50, µM": 5.4}
{"Smiles str": "O=C(O)COc1cccc(Cn2[nH]c(C(F)(F)F)c(Cc3ccc4c(c3)OCO4)c2=O)c1", "IC50, µM": 29}
{"Smiles str": "COc1cccc(Cn2nc(C(F)(F)F)c(Cc3ccc4c(c3)OCO4)c2OCC(=O)O)c1", "IC50, µM": 2.2}
{"Smiles str": "COc1cccc(Cn2[nH]c(-c3ccccc3)c(Cc3ccc4c(c3)OCO4)c2=O)c1", "IC50, µM": 3.2}
{"Smiles str": "COc1cccc(Cn2[nH]c(C(F)(F)C(F)(F)F)c(Cc3ccc4c(c3)OCO4)c2=O)c1", "IC50, µM": 3.3}
{"Smiles str": "COc1cccc(Cn2[nH]c(C(F)(F)F)c(Cc3cc4c(cc3Cl)OCO4)c2=O)c1", "IC50, µM": 2.4}

====

- Target of assay: Endothelin-1 receptor (Rattus norvegicus, UniProt P26684)
- Sequence (P26684 whole entry): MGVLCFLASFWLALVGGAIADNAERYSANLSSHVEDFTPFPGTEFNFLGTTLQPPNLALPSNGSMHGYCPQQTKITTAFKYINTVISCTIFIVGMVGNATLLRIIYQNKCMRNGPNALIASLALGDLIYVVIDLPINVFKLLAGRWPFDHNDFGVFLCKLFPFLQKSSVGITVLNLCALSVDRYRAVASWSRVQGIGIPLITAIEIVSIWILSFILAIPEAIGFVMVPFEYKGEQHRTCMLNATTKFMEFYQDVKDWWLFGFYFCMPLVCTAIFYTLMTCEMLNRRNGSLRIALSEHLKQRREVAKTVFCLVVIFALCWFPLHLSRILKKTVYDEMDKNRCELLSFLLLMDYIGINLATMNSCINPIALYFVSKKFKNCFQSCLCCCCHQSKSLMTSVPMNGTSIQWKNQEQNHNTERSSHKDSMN
- Experiment description: In vitro inhibition of endothelin binding to endothelin A receptor in rat heart ventricles was measured using a 125-I labelled ET-1 competition assay
pIC50: −log10 of the molar value.

{"Smiles str": "COc1cccc(Cn2[nH]c(C)c(Cc3ccc4c(c3)OCO4)c2=O)c1", "Target of assay": "Endothelin-1 receptor (Rattus norvegicus, UniProt P26684)", "pIC50": 4.70}
{"Smiles str": "COc1cccc(Cn2nc(C(F)(F)F)c(Cc3ccc4c(c3)OCO4)c2OCCCC(=O)O)c1", "Target of assay": "Endothelin-1 receptor (Rattus norvegicus, UniProt P26684)", "pIC50": 4.19}
{"Smiles str": "O=c1c(Cc2ccc3c(c2)OCO3)c(C(F)(F)F)[nH]n1Cc1ccc2c(c1)OCO2", "Target of assay": "Endothelin-1 receptor (Rattus norvegicus, UniProt P26684)", "pIC50": 5.25}
{"Smiles str": "COc1cccc(Cn2[nH]c(-c3ccc([N+](=O)[O-])cc3)c(Cc3ccc4c(c3)OCO4)c2=O)c1", "Target of assay": "Endothelin-1 receptor (Rattus norvegicus, UniProt P26684)", "pIC50": 5.51}
{"Smiles str": "COc1cccc(Cn2[nH]c(C(F)(F)F)c(Cc3ccccc3)c2=O)c1", "Target of assay": "Endothelin-1 receptor (Rattus norvegicus, UniProt P26684)", "pIC50": 4.01}
{"Smiles str": "O=c1c(Cc2ccc3c(c2)OCO3)c(C(F)(F)F)[nH]n1Cc1cccc(O)c1", "Target of assay": "Endothelin-1 receptor (Rattus norvegicus, UniProt P26684)", "pIC50": 5.77}
{"Smiles str": "O=c1c(Cc2ccc3c(c2)OCO3)c(C(F)(F)F)[nH]n1Cc1ccccc1Cl", "Target of assay": "Endothelin-1 receptor (Rattus norvegicus, UniProt P26684)", "pIC50": 5.42}
{"Smiles str": "COc1cccc(Cn2[nH]c(C(F)(F)C(F)(F)F)c(Cc3ccc4c(c3)OCO4)c2=O)c1", "Target of assay": "Endothelin-1 receptor (Rattus norvegicus, UniProt P26684)", "pIC50": 6.96}
{"Smiles str": "COc1ccc(Cn2[nH]c(C(F)(F)F)c(Cc3ccc4c(c3)OCO4)c2=O)c(OCC(=O)O)c1", "Target of assay": "Endothelin-1 receptor (Rattus norvegicus, UniProt P26684)", "pIC50": 5.42}
